- protocolDetails: folding stability dG unfold from chymotrypsin proteolysis; higher = more stable
folding stability dG unfold overview

| sequenceString | unitAnnotation | folding stability dG unfold |
| --- | --- | --- |
| SAGGSAGGSAGGMVIERPLPNGEPLLVELGRPASAPARVTVPNPGRPLGTITSLEELEERSAGGSAGGSAGG [r7_72_TrMRF] | kcal/mol | 0.565 |
| SMEPGELRLRAKVPLRIVNPDGEEIADIEIEVRSIEELEEAIAEAARELAERLGRPDAPVVIDDIEVEDESA [r9_376_TrMRF] | kcal/mol | 0.643 |
| SAGGSDEHEYKGTGRDPDNGQTREETYRVEPVVPPIPISISVSLNLDIDPNGNLNWDFNISIGIGISAGGSA [r2_326_TrROS] | kcal/mol | 3.81 |
| SAGGGSATLVGIFPEKGYLVVLTITTDGDDFSIGELKVTFEPLDDDSVKATFYTPSGQKHDAIGLPVASAGG [r13_515_TrMRF] | kcal/mol | 1.42 |
| SAGGGMLEVTREPSPDGVTRYVVTVPADRTVTVTRPDGTTTTTAAPDADAVITYTVPPGTPVAVSLTPSAGG [r13_82_JUSTAS] | kcal/mol | -0.524 |
| SAGGSAGGLEIAKELGFEKIEIEEVKENRVVLKLKDKNGKEYKIEFEFDPETGEIKILKIEPLPSAGGSAGG [r6_526_TrMRF] | kcal/mol | 4.19 |
| SAGGGSMIKKTLEEEPVGESTVSKSTVTLPDGTPVSVTSTTTKVGNTWTTTTTTNYGSSTTTTTTTTSAGGS [r16_476_JUSTAS] | kcal/mol | 0.419 |
| SMTITIERPVPPELTDRPLSLELPLPNGSTVSVKVETSPTTATVTITTNDPSLEAEVKARVEELLARLLASA [r9_790_JUSTAS] | kcal/mol | 2.06 |
| SAMSVKTYSSTSVDPKTGKTYTTTTTVTPKPEPPWLVTTTTYLVDPATGTTTLLSTTTTTLDPNDPTLLSAG [r14_939_JUSTAS] | kcal/mol | 2.67 |
| SAGGSAGGIEITEISRSEELLKLDVPEDTLVLKVKHPDGKEIEVTFPANIPIEEAKEKAKEFVESAGGSAGG [r6_986_TrMRF] | kcal/mol | -0.176 |
| SAGGSAGGSAGGDSVQIEFPDNGMTITINPNNGPISIMEPDGKKKTYPVDSPEEALDAISAGGSAGGSAGGS [r10_849_TrROS] | kcal/mol | 1.42 |
| SAGGKLTPEEIEELAKKLAEELRKEGKEVEIEVEIEVDGKLIKIKMKIDPKTKKIEIVKIEVYPKEDLSAGG [r13_37_TrROS_Hall] | kcal/mol | 2.93 |
| SAGGSAGGSAGGKKKIKVELEVKEDGTIRMKATTEDGEEIETEIKVEKVEVTVFLPPEKSAGGSAGGSAGGS [r10_237_TrROS_Hall] | kcal/mol | 1.18 |
| SATKEIEIEVNGRKLRIRIERKEDGSIKITIELPGMSAEEVKEALRKLLPPDAKITVDEITVTEYREEPSAG [r14_370_TrROS_Hall] | kcal/mol | 2.43 |
| SAGGSAGGSASMSTTEITVTELEEPGEGKRLVIETKSFTPEGKEIDSEKVEEEVREELGVKPSAGGSAGGSA [r18_332_JUSTAS] | kcal/mol | -0.0823 |
| SAGGLSGEAKLVEAEFEPETGTVRVFAEAGDELLTFEFKGTPFLPPIPASISPESLEKDEPVIRVSGSAGGS [r16_809_TrMRF] | kcal/mol | 0.143 |
| SAGGSAGGSMTFSSEEEAEAFIAQLPPDSEVEVEIKDPNTDKTTKYKIKVPPEQPVYSPKGVLSAGGSAGGS [r12_393_JUSTAS] | kcal/mol | 1.5 |
| SAGGMTITVKPPDGTVITYTSETLPEIIAKLDPNGTYTITIEVPKVDPSNGGARPIVKTYTVPKERISAGGS [r16_806_JUSTAS] | kcal/mol | 1.21 |
| SAGGSAGGSAGMTLKVEVKVKVKVFDENGKLVREEEVTVEVEIELEPAPELRFLSEEELKSAGGSAGGSAGG [r17_325_TrROS_Hall] | kcal/mol | 2.63 |
| SMPKIEVKIEYDEETGEITVEIRVPETEEEALEALRKLAEEAGLEVEVEEVEIEEVDGELVIRVKVRIKPSA [r9_164_TrROS_Hall] | kcal/mol | 2.44 |
| SAGGSAKVKYKKDKNGNTYPVVEEKKKIKLTVKIKIFDKNGKLVKEITFPANMTLEEIEKEIKKLLSAGGSA [r15_309_TrROS_Hall] | kcal/mol | 1.79 |
| SAGEKEYVNLPLVVKLPPGVPASLILDAAVKHGAKEVTIVEEPTPDGGMVLHINLVLPKEALPKLLESLSAG [r5_376_TrMRF] | kcal/mol | 4.61 |
| SAGGSAGGSAGMTYRVRIENADGEVVTIEISADELREKGLTLEELLPPNARIVEVEEVEPSAGGSAGGSAGG [r11_829_TrROS_Hall] | kcal/mol | 3.61 |
